Tested on: MDR-1
protocol: MDCK cell permeability assay
Type: in vitro ADME, canine
experimentalConditions: dog, MDCK-MDR1; MDCK MDR-1 monolayer, 10 μM, 30 min, apical to basolateral
parameter: Papp A→B at 30 min, 10 μM (×10⁻⁶ cm/s)
Give the number; ×10⁻⁶ cm/s is assumed, so skip it.

Prompt line: Could you tell me which Papp A→B at 30 min, 10 μM is on file for Oc1ccc(Br)c2c1C(c1cccc3c1OCO3)NCC2 (centres unmarked) ?
Response line: 3.2

Prompt line: Could you tell me which Papp A→B at 30 min, 10 μM is on file for Oc1ccc(Br)c2c1C(Cc1ccc3c(c1)OCO3)NCC2 (centres unmarked) ?
Response line: 1.7
